- ASSAY_EXPLANATION: in vitro
- Type: in vitro ADME, human
- STATED_CONDITIONS: human liver microsomes 0.5 mg/mL, with NADPH, compound 0.5 μM, 37° C.; read-out: Human Liver Microsomal Stability t1/2
Hi! Just check whether half-life is below 1 h. Below gives true (1), equal or above gives false (0).

CC(=O)[C@H]1CC[C@H]2[C@@H]3CC[C@H]4C[C@](C)(OC(=O)CNCC(C)(C)O)CC[C@]4(C)[C@H]3CC[C@]12C
true (1)

Is the reported half-life for CC(=O)[C@H]1CC[C@H]2[C@@H]3CC[C@H]4C[C@](C)(OC(=O)CN5CCC[C@H]5C(=O)O)CC[C@]4(C)[C@H]3CC[C@]12C strictly below 1 h?
false (0)

Is the reported half-life for CC(=O)[C@H]1CC[C@H]2[C@@H]3CC[C@H]4C[C@](C)(OC(=O)CN[C@@H](C)C(=O)O)CC[C@]4(C)[C@H]3CC[C@]12C strictly below 1 h?
false (0)

Is the reported half-life for CC(=O)[C@H]1CC[C@H]2[C@@H]3CC[C@H]4C[C@](C)(OC(=O)COC(=O)OC5CNC5)CC[C@]4(C)[C@H]3CC[C@]12C strictly below 1 h?
false (0)

Is the reported half-life for CC(=O)[C@H]1CC[C@H]2[C@@H]3CC[C@H]4C[C@](C)(CC(=O)COC(=O)NCCN(C)C)CC[C@]4(C)[C@H]3CC[C@]12C strictly below 1 h?
false (0)

Is the reported half-life for CC(=O)[C@H]1CC[C@H]2[C@@H]3CC[C@H]4C[C@](C)(OC(=O)COC(=O)CO)CC[C@]4(C)[C@H]3CC[C@]12C strictly below 1 h?
true (1)

Is the reported half-life for CC(=O)[C@H]1CC[C@H]2[C@@H]3CC[C@H]4C[C@](C)(OC(=O)CN5CCC[C@H]5C(=O)OCc5ccccc5)CC[C@]4(C)[C@H]3CC[C@]12C strictly below 1 h?
true (1)

Data origin, for the record: patent US20250034201A1
